Taken from patent US20250197409A1.

target: androgen receptor (Homo sapiens, UniProt P10275, T878A); construct: host or cells: LNCaP.FGC; assay: Androgen receptor degradation assay using Western blot analysis; type: cell-based; conditions: 24 h, read-out: Androgen Receptor Remaining (%), LNCaP.FGC cells, 100 nM, 24 hr, normalized to GAPDH, untreated cells = 100%
Sequence (P10275 whole entry T878A): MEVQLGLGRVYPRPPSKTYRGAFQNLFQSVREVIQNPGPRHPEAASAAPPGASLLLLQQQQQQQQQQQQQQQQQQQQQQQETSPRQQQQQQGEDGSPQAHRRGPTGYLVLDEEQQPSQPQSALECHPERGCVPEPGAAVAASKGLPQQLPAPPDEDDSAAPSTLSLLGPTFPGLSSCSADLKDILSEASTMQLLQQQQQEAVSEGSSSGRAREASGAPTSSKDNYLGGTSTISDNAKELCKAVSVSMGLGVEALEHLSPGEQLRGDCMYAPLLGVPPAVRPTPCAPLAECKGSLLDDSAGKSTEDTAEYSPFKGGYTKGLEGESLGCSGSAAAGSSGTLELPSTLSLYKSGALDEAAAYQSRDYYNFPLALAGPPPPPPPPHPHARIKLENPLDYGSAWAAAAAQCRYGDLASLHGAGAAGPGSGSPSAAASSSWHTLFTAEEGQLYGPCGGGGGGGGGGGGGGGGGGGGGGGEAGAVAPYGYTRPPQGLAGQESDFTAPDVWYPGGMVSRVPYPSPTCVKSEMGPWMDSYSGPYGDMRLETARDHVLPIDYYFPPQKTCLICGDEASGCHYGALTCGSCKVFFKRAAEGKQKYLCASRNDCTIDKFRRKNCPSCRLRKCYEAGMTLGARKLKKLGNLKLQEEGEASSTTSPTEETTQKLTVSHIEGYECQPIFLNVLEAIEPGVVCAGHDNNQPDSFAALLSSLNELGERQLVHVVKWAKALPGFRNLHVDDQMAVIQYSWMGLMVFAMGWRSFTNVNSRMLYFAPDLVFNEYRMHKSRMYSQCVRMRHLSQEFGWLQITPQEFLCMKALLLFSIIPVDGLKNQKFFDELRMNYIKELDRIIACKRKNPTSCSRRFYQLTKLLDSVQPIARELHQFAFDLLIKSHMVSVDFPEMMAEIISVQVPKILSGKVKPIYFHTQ
Sequence (Q96SW2 whole entry partner): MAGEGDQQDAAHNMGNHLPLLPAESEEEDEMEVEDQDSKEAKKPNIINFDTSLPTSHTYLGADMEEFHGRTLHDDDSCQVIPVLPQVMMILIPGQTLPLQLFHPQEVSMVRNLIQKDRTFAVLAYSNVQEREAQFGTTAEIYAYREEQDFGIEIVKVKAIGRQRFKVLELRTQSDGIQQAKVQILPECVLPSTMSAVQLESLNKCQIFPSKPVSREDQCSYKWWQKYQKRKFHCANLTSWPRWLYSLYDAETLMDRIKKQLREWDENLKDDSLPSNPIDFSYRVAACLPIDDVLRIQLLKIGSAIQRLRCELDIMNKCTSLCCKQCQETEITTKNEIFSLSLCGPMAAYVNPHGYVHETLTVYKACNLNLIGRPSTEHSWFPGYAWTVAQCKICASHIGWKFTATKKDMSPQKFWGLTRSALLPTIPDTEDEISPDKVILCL
This listing pairs compounds with measured remaining activity at 0.1 µM.
Note: unit % is implicit; provide only the numeric part.

Answered examples (4):
[[record]]
compound = "N#Cc1ccc(O[C@H]2CC[C@H](NC(=O)c3ccc(N4CCN(CCOc5ccc6c7c(n(CC(F)F)c6c5)C(=O)N(C5CCC(=O)NC5=O)C7=O)CC4)nn3)CC2)cc1Cl (some centres unmarked)"
testsystem = "androgen receptor (Homo sapiens, UniProt P10275, T878A)"
numericvalue = 42

[[record]]
compound = "CCn1c2c(c3ccc(OCCCN4CCN(c5ccc(C(=O)N[C@H]6CC[C@H](Oc7ccc(C#N)c(Cl)c7)CC6)nn5)[C@@H](C)C4)cc31)C(=O)N(C1CCC(=O)NC1=O)C2=O (some centres unmarked)"
testsystem = "androgen receptor (Homo sapiens, UniProt P10275, T878A)"
numericvalue = 32

[[record]]
compound = "CCn1c2c(c3ccc(OCCN4CCN(c5ccc(C(=O)N[C@H]6CC[C@H](Oc7ccc(C#N)c(Cl)c7)CC6)cn5)CC4)cc31)C(=O)N(C1CCC(=O)NC1=O)C2=O (some centres unmarked)"
testsystem = "androgen receptor (Homo sapiens, UniProt P10275, T878A)"
numericvalue = 47

[[record]]
compound = "CCn1c2c(c3ccc(OCCCN4CCN(c5ccc(C(=O)N[C@H]6CC[C@H](Oc7ccc(C#N)c(Cl)c7)CC6)cn5)CC4)cc31)C(=O)N(C1CCC(=O)NC1=O)C2=O (some centres unmarked)"
testsystem = "androgen receptor (Homo sapiens, UniProt P10275, T878A)"
numericvalue = 75


Attention now turns to another entry.
Return remaining activity at 0.1 µM (reported value) for this compound: CCn1c2c(c3ccc(OCCN4CCC5(CC4)CN(c4ccc(C(=O)N[C@H]6CC[C@H](N(C)c7ccc(C#N)c(Cl)c7)CC6)nn4)C5)cc31)C(=O)N(C1CCC(=O)NC1=O)C2=O (some centres unmarked)
119
